Known IC50 of a selection of molecules
Biological target: human CD38 (Homo sapiens, UniProt P28907)
Sequence (P28907 1-300): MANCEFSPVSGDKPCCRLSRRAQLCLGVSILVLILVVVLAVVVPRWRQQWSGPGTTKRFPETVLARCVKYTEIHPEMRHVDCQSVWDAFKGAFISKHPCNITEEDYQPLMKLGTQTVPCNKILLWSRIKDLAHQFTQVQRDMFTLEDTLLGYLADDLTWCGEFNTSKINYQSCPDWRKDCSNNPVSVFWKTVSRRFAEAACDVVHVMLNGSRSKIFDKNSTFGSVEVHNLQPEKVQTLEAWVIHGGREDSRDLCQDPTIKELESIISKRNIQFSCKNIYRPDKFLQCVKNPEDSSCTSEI
Test: human recombinant CD38 enzyme assay (hydrolysis of NAD+)
Settings: human recombinant CD38, 0.4 nM enzyme, 62.5 μM NAD+; read-out: hCD38 BioChem IC50
assay.endpoint: IC50 (nM)

>>> quantitative_readout("O=C(Nc1ccc(C(F)(F)F)nc1)c1nc(-n2ccnc2)ccc1F")
9
>>> quantitative_readout("Cn1cncc1-c1cccc(C(=O)Nc2ccc(C(F)(F)F)nc2)n1")
15
>>> quantitative_readout("O=C(Nc1ccc(C(F)F)nc1)c1cc(C2CC2)nc(-n2ccnc2)n1")
3
>>> quantitative_readout("COCCO[C@H]1CC[C@H](NC(=O)c2cc(C)nc(-c3cncn3C)n2)CC1")
24
>>> quantitative_readout("CO[C@H]1CC[C@H](NC(=O)c2cc(C3CC3)nc(-c3cncs3)n2)CC1")
711

====

Target: endogenous CD38 in HL60 cells (Homo sapiens, UniProt P28907)
Construct: endogenous in cells
Experiment: cellular CD38 assay in HL60 cells (cellular NAD levels)
Details: all-trans retinoic acid, 24 hours, read-out: hCD38 HL60 ATRA NAD Cell Diaphorase IC50
pIC50: −log10 of the molar value.
Known pIC50 of a selection of compounds
assay.endpoint: pIC50

>>> quantitative_readout("Cn1cncc1-c1nc(C(=O)Nc2ccc(OC(F)F)nc2)cc(C2CCOCC2)n1")
6.18
>>> quantitative_readout("Cc1cc(NC(=O)c2cccc(-n3ccnc3)n2)ccn1")
6.56
>>> quantitative_readout("CC(C)c1cc(C(=O)Nc2ccc(C(F)F)nc2)nc(-c2cncn2C)n1")
5.90
>>> quantitative_readout("Cc1ccc(C(=O)Nc2cccnc2)nc1-n1ccnc1")
6.10
>>> quantitative_readout("O=C(Nc1ccnc(C(F)(F)F)c1)c1cccc(-n2ccnc2)n1")
6.06
>>> quantitative_readout("CO[C@H]1CC[C@H](NC(=O)c2nccc(-c3cncn3C)n2)CC1")
5.72
>>> quantitative_readout("Cn1cncc1-c1nccc(C(=O)Nc2ccc(C(F)F)nc2)n1")
6.62
>>> quantitative_readout("O=C(Nc1ccc(C(F)F)nc1)c1nc(C2CC2)cc(-n2ccnc2)n1")
6.39
>>> quantitative_readout("O=C(Nc1cccnc1)c1cncc(-n2ccnc2)n1")
6.58
>>> quantitative_readout("O=C(N[C@H]1CC[C@H](C(F)(F)F)CC1)c1ccnc(-n2ccnc2)n1")
5.63
>>> quantitative_readout("CO[C@H]1CC[C@H](NC(=O)c2cc(C(F)(F)F)nc(-n3ccnc3)n2)CC1")
5.26
>>> quantitative_readout("O=C(Nc1ccc(F)c(F)c1)c1cccc(-n2ccnc2)n1")
6.29

====

Biological target: mouse CD38 (Mus musculus, UniProt P56528)
Sequence (P56528 whole entry): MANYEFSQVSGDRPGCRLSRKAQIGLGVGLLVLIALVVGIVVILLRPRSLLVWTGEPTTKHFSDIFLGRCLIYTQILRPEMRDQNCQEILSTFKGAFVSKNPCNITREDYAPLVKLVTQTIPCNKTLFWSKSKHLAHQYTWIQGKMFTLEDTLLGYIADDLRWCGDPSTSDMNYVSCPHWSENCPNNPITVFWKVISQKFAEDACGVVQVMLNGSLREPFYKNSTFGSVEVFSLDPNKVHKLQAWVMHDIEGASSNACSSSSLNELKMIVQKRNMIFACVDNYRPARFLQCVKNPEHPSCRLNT
Experiment: mouse recombinant CD38 enzyme assay (hydrolysis of NAD+)
Conditions: read-out: mCD38 BioChem IC50
pIC50: −log10 of the molar value.
assay.endpoint: pIC50

>>> quantitative_readout("O=C(Nc1ccc(C(F)(F)F)nc1)c1cc(C(F)(F)F)nc(-c2cncs2)n1")
6.31
>>> quantitative_readout("Cn1cncc1-c1ccnc(C(=O)N[C@H]2C[C@H](c3cccc(F)c3)C2)n1")
7.84
>>> quantitative_readout("Cn1cncc1-c1ccnc(C(=O)Nc2ccc(C(F)F)nc2)n1")
8.22
>>> quantitative_readout("O=C(Nc1ccc(F)cc1F)c1cccc(-n2ccnc2)n1")
7.35
>>> quantitative_readout("Cn1cncc1-c1ccnc(C(=O)N[C@H]2C[C@H](c3ccccc3)C2)n1")
8.04
>>> quantitative_readout("O=C(Nc1ccc(C(F)F)nc1)c1nccc(-n2ccnc2)n1")
7.85

====

Biological target: human CD38 (Homo sapiens, UniProt P28907)
Assay: human recombinant CD38 enzyme assay (hydrolysis of NAD+)
Details: human recombinant CD38, 0.4 nM enzyme, 62.5 μM NAD+; read-out: hCD38 BioChem IC50
pIC50: −log10 of the molar value.
assay.endpoint: pIC50

>>> quantitative_readout("CC(C)(O)[C@H]1CC[C@H](NC(=O)c2cccc(-n3ccnc3)n2)CC1")
7.43
>>> quantitative_readout("Cn1cncc1-c1nc(C(=O)Nc2ccc(C(C)(C)O)nc2)cc(C2CCC(F)(F)CC2)n1")
7.91
>>> quantitative_readout("Cn1cncc1-c1ccnc(C(=O)Nc2ccc(OC3CCC(F)(F)CC3)nc2)n1")
8.30
>>> quantitative_readout("COCCO[C@H]1C[C@H](NC(=O)c2nccc(-n3ccnc3)n2)C1")
5.79
>>> quantitative_readout("O=C(N[C@H]1CC[C@H](O)CC1)c1cccc(-n2ccnc2)n1")
7.07
>>> quantitative_readout("Cc1cc(C(=O)N[C@H]2CC[C@H](C(F)F)CC2)nc(-n2ccnc2)c1")
7.62
>>> quantitative_readout("O=C(Nc1cccnc1)c1cncc(-n2ccnc2)n1")
8.30
>>> quantitative_readout("O=C(Nc1cccnc1)c1cccc(-n2ccnc2)c1")
5.91

====

Biological target: human CD38 (Homo sapiens)
Experiment: human recombinant CD38 enzyme assay (hydrolysis of NAD+)
Conditions: human recombinant CD38, 0.4 nM enzyme, 62.5 μM NAD+; read-out: hCD38 BioChem IC50
Experimental: Compounds described herein were assayed for their ability to inhibit the hydrolysis of NAD+ by the protein CD38. […] Dose responses were measured using an assay to detect the hydrolysis of NAD+. […] Subsequent detection of remaining NAD+ was determined by first converting NAD+ to NADH using alcohol dehydrogenase, then using the resulting NADH to reduce resazurine to the fluorescent product resorufin. […] The plates were read for fluorescence (Excitation/Emission=540 nm/590 nm) using an EnVision plate reader. […]
pIC50: −log10 of the molar value.
Label class 1 when pIC50 is at or above 7; anything below gets class 0.

>>> assigned_class("Cn1cncc1-c1ccnc(C(=O)NC2CCC(C)(C)OC2)n1 (stereo not shown)")
"class 0"
>>> assigned_class("COc1cc(-n2ccnc2)nc(C(=O)N[C@H]2CC[C@H](OC)CC2)n1")
"class 0"
>>> assigned_class("CC(C)c1cc(C(=O)Nc2ccc(C(F)F)nc2)nc(-n2ccnc2)n1")
"class 1"
>>> assigned_class("Cc1ccc(NC(=O)c2cccc(-c3cncs3)n2)cn1")
"class 0"
>>> assigned_class("O=C(N[C@H]1C[C@H](c2ccnc(C(F)(F)F)c2)C1)c1nccc(-n2ccnc2)n1")
"class 1"
>>> assigned_class("O=C(N[C@H]1CC[C@H](C(F)F)CC1)c1nccc(-n2ccnc2)n1")
"class 1"
>>> assigned_class("CO[C@H]1C[C@H](NC(=O)c2nccc(-n3ccnc3)n2)C1")
"class 0"
>>> assigned_class("Cn1cncc1-c1nc(C(=O)Nc2ccc(C(C)(C)O)nc2)cc(C2CCOCC2)n1")
"class 1"

====

Known pIC50 of a selection of compounds
Molecular target: human CD38 (Homo sapiens)
Sequence (P28907 1-300): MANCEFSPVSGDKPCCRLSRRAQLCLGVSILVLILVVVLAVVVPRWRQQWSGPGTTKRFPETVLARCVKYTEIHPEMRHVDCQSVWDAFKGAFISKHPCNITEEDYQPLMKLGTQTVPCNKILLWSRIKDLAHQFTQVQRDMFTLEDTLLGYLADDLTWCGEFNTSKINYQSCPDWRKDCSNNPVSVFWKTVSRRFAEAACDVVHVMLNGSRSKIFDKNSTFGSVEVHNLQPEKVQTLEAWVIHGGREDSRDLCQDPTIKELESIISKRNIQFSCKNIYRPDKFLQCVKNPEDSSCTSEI
Assay: human recombinant CD38 enzyme assay (hydrolysis of NAD+)
Conditions: human recombinant CD38, 0.4 nM enzyme, 62.5 μM NAD+; read-out: hCD38 BioChem IC50
pIC50: −log10 of the molar value.
assay.endpoint: pIC50

>>> quantitative_readout("O=C(Nc1ccc(C(F)(F)F)nc1)c1cccc(-n2cnnc2)n1 [Compound 143]")
5.69
>>> quantitative_readout("Cc1ccc(NC(=O)c2cc(C(F)(F)F)nc(-n3ccnc3)n2)cn1 [Compound 137]")
8.10
>>> quantitative_readout("CO[C@H]1CC[C@H](NC(=O)c2cc(C3CCC(F)(F)CC3)nc(-c3cncn3C)n2)CC1 [Compound 289]")
8.15
>>> quantitative_readout("O=C(N[C@H]1C[C@H](c2ccccc2)C1)c1nccc(-n2ccnc2)n1 [Compound 211]")
7.34
>>> quantitative_readout("COc1cc(C(=O)N[C@H]2CC[C@H](OC)CC2)nc(-c2cncs2)n1 [Compound 130]")
6.31
>>> quantitative_readout("COCCOc1cc(-c2cncn2C)nc(C(=O)Nc2ccc(C(F)F)nc2)n1 [Compound 224]")
8.25
>>> quantitative_readout("O=C(NC1CC2(COC2)C1)c1nccc(-n2ccnc2)n1 [Compound 290]")
5.91
>>> quantitative_readout("Cn1cncc1-c1ccnc(C(=O)N[C@H]2CC[C@H](OCC(F)(F)F)CC2)n1 [Compound 343]")
7.61
